Target: IRAK4 (Homo sapiens, UniProt Q9NWZ3)
Sequence (Q9NWZ3 whole entry): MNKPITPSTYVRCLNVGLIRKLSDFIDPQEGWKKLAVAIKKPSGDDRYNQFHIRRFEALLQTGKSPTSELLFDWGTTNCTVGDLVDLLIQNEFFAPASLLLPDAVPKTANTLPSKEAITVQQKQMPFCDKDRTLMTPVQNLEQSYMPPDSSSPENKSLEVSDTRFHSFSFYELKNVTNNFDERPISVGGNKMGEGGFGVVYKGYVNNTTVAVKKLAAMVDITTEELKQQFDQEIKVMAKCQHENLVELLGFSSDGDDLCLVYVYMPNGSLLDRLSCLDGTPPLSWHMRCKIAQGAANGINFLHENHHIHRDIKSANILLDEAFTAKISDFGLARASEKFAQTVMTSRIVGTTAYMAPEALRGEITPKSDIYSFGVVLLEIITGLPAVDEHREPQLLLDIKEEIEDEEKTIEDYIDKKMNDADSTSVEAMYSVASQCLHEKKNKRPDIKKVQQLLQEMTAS
Assay: OCI-LY-10 degradation assay (western blot, % IRAK4 degraded after 4 hours)
Assay type: cell-based
Parameters: endogenous in cells; host or cells: OCI-LY10
Conditions: OCI-LY10 cells, 4 hours, 0.01 uM compound
Description: Compounds were reconstituted in DMSO to make stock solutions at concentration of 60 mM. THP-1 and OCI-LY10 cells were maintained in RPMI-1640 medium containing 10% FBS, 0.5 μM 2-ME or 20% FBS, 55 μM 2-ME, and 1% L-Glutamine respectively. […] The protein concentration of cell lysates was quantified with Pierce™ BCA Protein Assay Kit (Pierce, 23227). […] After incubation at 37° C. for 30 min, the absorbance of samples at 562 nm were measured with EnVision Plate Reader. […]
PROPERTY LABEL: OCI-LY10 % IRAK4 Degradation (0.01 uM)

- COMPOUND: "NC(=O)c1nn(Cc2cn(CCOCCOCCNc3cccc4c3C(=O)N(C3CCC(=O)NC3=O)C4=O)nn2)cc1NC(=O)c1coc(-c2ccnc(NCC3CC3)c2)n1 (centres unmarked) [I-304]"
  PROPERTY LABEL: "OCI-LY10 % IRAK4 Degradation (0.01 uM)"
  ASSAY VALUE: "C (<20% degradation)"
- COMPOUND: "Cn1cc(NC(=O)c2coc(-c3ccnc(NCC(F)(F)F)c3)n2)c(C(=O)NCCCOCC(C)(C)COCCCc2cccc3c2n(C)c(=O)n3C2CCC(=O)NC2=O)n1 (centres unmarked) [I-297]"
  PROPERTY LABEL: "OCI-LY10 % IRAK4 Degradation (0.01 uM)"
  ASSAY VALUE: "C (<20% degradation)"
- COMPOUND: "CN(CCCCCCCCCc1cccc2c1C(=O)N(C1CCC(=O)NC1=O)C2=O)C(=O)c1ccc(-n2cc(NC(=O)c3coc(-c4ccnc(NCC5CC5)c4)n3)c(C(N)=O)n2)cc1 (centres unmarked) [I-230]"
  PROPERTY LABEL: "OCI-LY10 % IRAK4 Degradation (0.01 uM)"
  ASSAY VALUE: "C (<20% degradation)"

###

Molecular target: IRAK4 (Homo sapiens)
Experiment: OCI-LY-10 degradation assay (western blot, % IRAK4 degraded after 4 hours)
Assay type: cell-based
Set-up: endogenous in cells; host or cells: OCI-LY10
Settings: OCI-LY10 cells, 4 hours, 1 uM compound
PROPERTY LABEL: OCI-LY10 % IRAK4 Degradation (1 uM)

Some solved entries appear below for comparison.
- MOLECULE: "NC(=O)c1nn(-c2ccc(CNCCOCCOCCOCCCc3cccc4c3CN(C3CCC(=O)NC3=O)C4=O)cc2)cc1NC(=O)c1coc(-c2ccnc(NCC3CC3)c2)n1 (stereo not shown)"
  SUBJECT OF TEST: "IRAK4 (Homo sapiens)"
  ASSAY VALUE: "A (>50% degradation)"
- MOLECULE: "O=C1CCC(N2C(=O)c3ccc(CCCOCCNCc4ccc(-n5cc(NC(=O)c6coc(-c7ccnc(NCC8CC8)c7)n6)c(C(F)F)n5)cc4)cc3C2=O)C(=O)N1 (stereo not shown)"
  SUBJECT OF TEST: "IRAK4 (Homo sapiens)"
  ASSAY VALUE: "A (>50% degradation)"
- MOLECULE: "NC(=O)c1nn(-c2ccc(CNCCOCCCc3cccc4c3C(=O)N(C3CCC(=O)NC3=O)C4=O)cc2)cc1NC(=O)c1coc(-c2ccnc(NCC(F)(F)F)c2)n1 (stereo not shown)"
  SUBJECT OF TEST: "IRAK4 (Homo sapiens)"
  ASSAY VALUE: "B (>20-50% degradation)"
- MOLECULE: "NC(=O)c1nn(-c2ccc(C(=O)NCCOCCOCCOCCOCCCc3cccc4c3C(=O)N(C3CCC(=O)NC3=O)C4=O)cc2)cc1NC(=O)c1coc(-c2ccnc(NCC(F)(F)F)c2)n1 (stereo not shown)"
  SUBJECT OF TEST: "IRAK4 (Homo sapiens)"
  ASSAY VALUE: "A (>50% degradation)"

Look up OCI-LY10 % IRAK4 Degradation (1 uM): O=C1CCC(N2Cc3cc(N4CCN(CCOCCOCCNCc5ccc(-n6cc(NC(=O)c7coc(-c8ccnc(NCC9CC9)c8)n7)c(C(F)F)n6)cc5)CC4)ccc3C2=O)C(=O)N1 (stereo not shown) A (>50% degradation)

Look up OCI-LY10 % IRAK4 Degradation (1 uM): CC(=O)O[C@@H]1C[C@@H](C(=O)NCc2ccc(-n3cc(NC(=O)c4coc(-c5ccnc(NCC6CC6)c5)n4)c(C(F)F)n3)cc2)N(C(=O)[C@@H](NC(=O)COCCOCCOCCNc2cccc3c2C(=O)N(C2CCC(=O)NC2=O)C3=O)C(C)(C)C)C1 (stereo partly shown) B (>20-50% degradation)
